system: HA of ca A/swine/Missouri/06 (H2N3) virus (influenza A virus)
measurement.description: cell-based or functional assay
observation.type: Neutralization IC50, H2-MO06

1. Antibody 8 (antibody, V domains shown) VH: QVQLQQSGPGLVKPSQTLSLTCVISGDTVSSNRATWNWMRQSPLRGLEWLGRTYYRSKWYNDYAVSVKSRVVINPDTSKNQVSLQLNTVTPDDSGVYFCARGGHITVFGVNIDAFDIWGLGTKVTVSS VL: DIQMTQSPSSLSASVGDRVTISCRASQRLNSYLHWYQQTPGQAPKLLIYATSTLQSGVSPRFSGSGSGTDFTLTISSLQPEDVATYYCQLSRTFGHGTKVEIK ... 2.62 µg/mL
2. Antibody 10 (antibody, V domains shown) VH: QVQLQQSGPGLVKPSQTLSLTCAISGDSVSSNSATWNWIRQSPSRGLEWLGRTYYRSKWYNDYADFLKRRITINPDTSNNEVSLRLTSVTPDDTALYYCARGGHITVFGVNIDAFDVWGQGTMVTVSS VL: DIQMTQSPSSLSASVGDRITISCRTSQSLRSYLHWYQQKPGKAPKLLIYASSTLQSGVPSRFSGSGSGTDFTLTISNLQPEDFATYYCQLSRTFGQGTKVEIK ... 1.04 µg/mL
